System: Madurella mycetomatis MM55
Experiment: percent growth relative to solvent control; higher = less inhibition, active = 20 or less
Conditions: 100 µM; 7 days
endpoint name: percent growth (%)
One number for each entry, in %.

# batch size: 5; output percent growth per entry
1. Cc1cnc(N2CCN[C@@H](Cc3ccccc3)C2)nc1Oc1ccc(-n2ccnc2)cc1
2. Cc1cc(C(=O)Nc2cnn(Cc3ccc(Cl)cc3Cl)c2)no1
3. COc1ccc(N(CCc2cccc(C)n2)C(C)=O)cc1
4. COc1ccc(Cn2cnc3c(-c4ccco4)nc(Cl)nc32)cc1
5. OCCc1ccc(Nc2nccc(-c3nnc4ccccn34)n2)cc1

Result:
1: 3.67; 2: 121; 3: 101; 4: 82.7; 5: 88.7

# batch size: 4; output percent growth per entry
1. O=C(NCCc1c[nH]c2ccccc12)c1cc2ccccc2oc1=O
2. Nc1ccc(C(=O)Nc2ccc(-c3nc4ccccc4o3)cc2)cc1
3. NCC(=O)N1CCn2c(nc(-c3ccccc3)c2Nc2ccc3c(c2)OCO3)C1
4. CC(C)=CCC/C(C)=C\CNCCNC1C2CC3CC(C2)CC1C3 (stereo unspecified)

Result:
1: 109; 2: 100; 3: 157; 4: 2.78

# batch size: 2; output percent growth per entry
1. CC(C)(C)n1nc(-c2ccccc2)c2c(N)ncnc21
2. O=C(COc1cccc(F)c1)Nc1nc(-c2ccccn2)cs1

Result:
[10.4, 0.599]
